Recorded pIC50 by entry
- test-target: human recombinant GPR65 (Homo sapiens, UniProt Q8IYL9)
- Sequence (Q8IYL9 whole entry): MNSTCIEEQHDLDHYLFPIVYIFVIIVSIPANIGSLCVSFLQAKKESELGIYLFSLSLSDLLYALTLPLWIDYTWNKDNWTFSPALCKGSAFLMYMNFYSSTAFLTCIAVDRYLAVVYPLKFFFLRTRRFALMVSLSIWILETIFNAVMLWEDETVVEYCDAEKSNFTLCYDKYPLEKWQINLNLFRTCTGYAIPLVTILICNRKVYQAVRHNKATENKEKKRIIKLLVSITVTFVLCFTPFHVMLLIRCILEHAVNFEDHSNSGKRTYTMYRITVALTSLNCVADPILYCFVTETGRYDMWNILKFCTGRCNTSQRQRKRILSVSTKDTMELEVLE
- measurement-description: Human GPR65 cAMP HTRF antagonist assay
- Format: cell-based
- assay-conditions: 1321N1-hrGPR65 cells, cAMP HTRF, assay pH 7.2; read-out: hGPR65 IC50 (Activity of selected compounds according to the invention)
pIC50: −log10 of the molar value.

Worked examples follow.
Cc1n[nH]c(C)c1-c1cc(F)c(NC(=O)N2[C@H]3CC[C@@H]2c2n[nH]c(=O)cc2C3)cc1Cl [Compound 149] ... 5.30 to 6.30
O=C1NCc2cc(-c3cc(F)c(NC(=O)N4[C@H]5CC[C@@H]4c4n[nH]c(=O)cc4C5)cc3Cl)ccc21 [Compound 142] ... < 5.30
CS(=O)(=O)NCc1cccc(-c2cc(F)c(NC(=O)N3[C@H]4CC[C@@H]3c3n[nH]c(=O)cc3C4)cc2Cl)c1 [Compound 203] ... 5.30 to 6.30
O=C(Nc1cc(Cl)c(C(F)(F)F)cn1)N1C2CCC1c1n[nH]c(=O)cc1C2 (racemic) [Compound 12] ... 5.30 to 6.30
O=C(Nc1cc(Cl)c(-c2ccnnc2)cc1F)N1[C@H]2CC[C@@H]1c1n[nH]c(=O)cc1C2 [Compound 174] ... < 5.30

QUERY: // lookup pIC50 for O=C(Nc1cc(Cl)c(-c2cnccn2)cc1F)N1[C@H]2CC[C@@H]1c1n[nH]c(=O)cc1C2 [Compound 271]
RESULT: 5.30 to 6.30

QUERY: // lookup pIC50 for O=C(Nc1cc(Cl)c(C(F)(F)F)cc1F)N1[C@@H]2CC[C@H]1c1c[nH]c(=O)nc1C2 [Compound 25]
RESULT: 5.30 to 6.30
